Exercise: state measured normalized growth for each of the compounds provided.
assay: chemical genetic growth profiling, strain panel (AID 1159580);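 note: tested at 20 µM; growth read once vehicle control cultures reached saturation at 30 °C; 1 = growth at the plate median or of vehicle wells; lower values mean less growth of the strain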; conditions: S. cerevisiae deletion strains, growth OD, locus YLR027C, strain aat2, active compounds read low
Screen size: about 5,500 compounds; about 2,000 (36%) were called active. Another 18% or so got no clear call; they are omitted. This is one part of the list.
Numbers only.

INSERT INTO measurements (compound, observed_measurement) VALUES
  ('CNC(=O)O/N=C\C(C)(C)SC', 1.01),
  ('C[C@@H]1OC(O[C@H]2C(O[C@H]3CC[C@@]4(C)C(CC[C@]5(C)C4CC=C4C6CC(C)(C)CC[C@]6(C(=O)O)CC[C@]45C)[C@]3(C)CO)OC[C@H](O)[C@@H]2O)[C@H](O)[C@H](O)[C@H]1O (stereo partly drawn)', 0.0549),
  ('C[C@@H]1CC[C@H]2[C@@H](C)C(=O)O[C@@H]3O[C@@]4(C)CC[C@@H]1[C@]32OO4', 0.865),
  ('COc1cc(C(=O)O[C@H]2CC[C@@]3(C)[C@@H]4CC[C@H]5[C@]6(O)C[C@H](O)[C@@]7(O)[C@@H](CN8C[C@@H](C)CC[C@H]8[C@@]7(C)O)[C@]6(O)C[C@@]53O[C@]24O)cc(OC)c1OC', 0.977),
  ('CC(=O)NCc1c(I)c(NC(C)=O)c(I)c(C(=O)O)c1I', 1),
  ('N=C(N)SCCN', 1.01);

Please go through the list and note normalized growth for each compound.
1. CC(=O)O[C@@H]1CC[C@@]2(C)C(CC[C@]3(C)C2CC=C2C4CC(C)(C)CC[C@]4(C(=O)O)CC[C@]23C)C1(C)C (stereo partly drawn)
2. CC1(C)CC[C@]2(C(=O)O)CC[C@]3(C)C(=CCC4[C@@]5(C)CC[C@H](O)[C@@](C)(CO)C5CC[C@]43C)C2C1 (stereo partly drawn)

result:
1. 0.981
2. 1.02
